- Test system: Jurkat-DNR cells
- Protocol: Direct cytotoxicity (Toxic Dose 50) without chemotherapeutic
- Condition Parameters: Jurkat-DNR cells, inhibitor without chemotherapeutic
- Description: Cells (ABCB1, Jurkat-DNR or ABCG2 Ig-MXP3) are incubated with the test compound (3 order of magnitude concentration range) over a 3-day and 7-day period in the presence of the inhibitor and chemotherapeutic (ABCB1, DNR or ABCG2 MTX), such that a cell concentration of at least 1×10^5 cells/mL is maintained. Cell viability is determined by trypan blue staining and enumeration under light microscopy. […] A chemoreversal index (Chemoreversal 50, CR50) is determined from the viability assessment. […]
Measurement Label: TD50 ABCB1 (µM)
Numbers only, in µM.

Study these solved cases before continuing.
compound=O=C(c1ccoc1)N1CCN(c2cc(-c3cccnc3)nc3cc(-c4cccc(Cl)c4)nn23)CC1 measurement_label="TD50 ABCB1" scale_unit=µM observed=5.33
compound="COc1ccc2c3c([nH]c2c1)[C@H](CC(C)C)N1C(=O)[C@H](CCC(=O)OC(C)(C)C)NC(=O)[C@@H]1C3 [Compound 4, reference compound]" measurement_label="TD50 ABCB1" scale_unit=µM observed=2.84
compound=O=C(c1ccoc1)N1CCN(c2cc(-c3ccco3)nc3cc(-c4ccccc4)nn23)CC1 measurement_label="TD50 ABCB1" scale_unit=µM observed=5.52
compound=COc1ccc(-c2cc3nc(-c4ccccc4)cc(N4CCN(C(=O)c5ccoc5)CC4)n3n2)cc1 measurement_label="TD50 ABCB1" scale_unit=µM observed=5.54

State recorded TD50 ABCB1 for all listed compounds.
1. O=C(c1ccoc1)N1CCN(c2cc(-c3ccco3)nc3cc(-c4cccc(Cl)c4)nn23)CC1
2. O=C(Cc1ccccc1)N1CCN(c2cc(-c3ccccc3)nc3cc(-c4cccc(Cl)c4)nn23)CC1
3. COc1cccc(-c2cc(N3CCN(C(=O)c4ccoc4)CC3)n3nc(-c4ccccc4)cc3n2)c1
4. CC(=O)N1CCN(c2cc(-c3ccco3)nc3cc(-c4ccccc4)nn23)CC1

[reply]
1. 8.53
2. 17.80
3. 5.77
4. 10.10
